Tested on: A. aerogenes
Experiment: conventional agar dilution test, A. aerogenes
Type: cell-based
Conditions: Aa = A. aerogenes, complete growth inhibition
Source text: In representative operations, the products of the invention when tested for antimicrobial activity using conventional agar dilution tests gave complete growth inhibition against the following organisms at the indicated concentrations in parts per million: Minimum Inhibitory Concentration, ppm
experimentalReadout: Minimum Inhibitory Concentration

compound="Cl/C=C\\C[N+]12CN3CN(CN(C3)C1)C2 [If]" tgt="A. aerogenes" experimentalreadout="Minimum Inhibitory Concentration" testvalue="250 ppm"
compound="Cl/C=C\\C[N+]12CN3CN(CN(C3)C1)C2 [Ih]" tgt="A. aerogenes" experimentalreadout="Minimum Inhibitory Concentration" testvalue="250 ppm"
compound="Cl/C=C\\C[N+]12CN3CN(CN(C3)C1)C2 [Id]" tgt="A. aerogenes" experimentalreadout="Minimum Inhibitory Concentration" testvalue="250 ppm"
compound="Cl/C=C\\C[N+]12CN3CN(CN(C3)C1)C2 [Ic]" tgt="A. aerogenes" experimentalreadout="Minimum Inhibitory Concentration" testvalue="100 ppm"
compound="Cl/C=C\\C[N+]12CN3CN(CN(C3)C1)C2 [Ij]" tgt="A. aerogenes" experimentalreadout="Minimum Inhibitory Concentration" testvalue="75 ppm"

Look at each compound and report its Minimum Inhibitory Concentration.
1. Cl/C=C\C[N+]12CN3CN(CN(C3)C1)C2 [Ii]
2. Cl/C=C\C[N+]12CN3CN(CN(C3)C1)C2 [Ia]

A.
["250 ppm", "100 ppm"]

---

Assign inhibition at 500 ppm to each entry below.
Test system: C. pelliculosa
Assay: conventional agar dilution test, C. pelliculosa
Type: cell-based
Details: Cp = C. pelliculosa; 500 ppm

compound="Cl/C=C\\C[N+]12CN3CN(CN(C3)C1)C2 [Id]" tgt="C. pelliculosa" testvalue=".-+. (>90% inhibition at 500 ppm)"

Alright, here's another compound for you.
Q. Find the measured inhibition at 500 ppm of Cl/C=C\C[N+]12CN3CN(CN(C3)C1)C2 [Ib] and report it.
A. .-+. (>90% inhibition at 500 ppm)

Hello, the source for this data is patent USRE29226E, in case you need it.
